target: His6-ERα298-554 WT (ERα ligand-binding domain) (Homo sapiens (Human), UniProt P03372); assay: Test A: biochemical antagonist activity, LanthaScreen TR-FRET ERα coactivator assay, WT; settings: asterisk (*): protocol using 10 nM estradiol; read-out: Antagonism WT IC50
Sequence (P03372 298-554): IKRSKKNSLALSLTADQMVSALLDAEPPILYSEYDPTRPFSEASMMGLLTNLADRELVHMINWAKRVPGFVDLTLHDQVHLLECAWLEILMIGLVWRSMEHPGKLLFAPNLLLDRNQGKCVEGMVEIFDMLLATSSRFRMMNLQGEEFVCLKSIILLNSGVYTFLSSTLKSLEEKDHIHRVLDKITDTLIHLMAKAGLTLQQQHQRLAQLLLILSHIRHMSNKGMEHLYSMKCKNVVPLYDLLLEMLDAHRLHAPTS
reported_endpoint: IC50 (nM)
Numbers only, in nM.

molecule	target_of_assay	IC50 (nM)
Oc1ccc2c(c1)SCC(c1ccc3c(c1)OCCO3)=C2c1ccc(O[C@H]2CCN(CCCF)C2)cc1 [Example 28]	His6-ERα298-554 WT (ERα ligand-binding domain) (Homo sapiens (Human), UniProt P03372)	4

# batch: return IC50 for each of the 7 molecules below
1. CCOc1ccc(C2=C(c3ccc(O[C@H]4CCN(CCCF)C4)cc3)c3ccc(O)cc3SC2)c(F)n1 [Example 27]
2. Cc1ccc(C2=C(c3ccc(O[C@H]4CCN(CCCF)C4)nc3)c3ccc(O)cc3SCC2)c(Cl)c1 [Example 206]
3. Oc1ccc2c(c1)SCC(c1ccc(OC(F)(F)F)cc1)=C2c1ccc(O[C@H]2CCN(CCCF)C2)cc1 [Example 54]
4. CCOc1ccc(C2=C(c3ccc(O[C@H]4CCN(CCCF)C4)cc3)c3ccc(O)cc3SCC2)c(F)c1 [Example 196]
5. CC1(C)Cc2cc(C3=C(c4ccc(O[C@H]5CCN(CCCF)C5)nc4)c4ccc(O)cc4CCC3)ccc2N1 [Example 242]
6. CCNc1ccc(C2=C(c3ccc(O[C@H]4CCN(CCCF)C4)cc3)c3ccc(O)cc3SCC2)c(F)c1 [Example 200]
7. COc1ccc(C2=C(c3ccc(O[C@H]4CCN(CCCF)C4)cc3)c3ccc(O)cc3SC2)cc1F [Example 23]

Out:
1. 2
2. 0.7
3. 246
4. 3
5. 1
6. 3
7. 50

###

biological target: ERα in MCF7 cells (Homo sapiens (Human), UniProt P03372); assay: Test C: estrogen receptor degradation activity, ERα in cell western assay in MCF7 cells; assay type: cell-based; conditions: at 3 μM, 4 hours, relative to fulvestrant
Sequence (P03372 whole entry): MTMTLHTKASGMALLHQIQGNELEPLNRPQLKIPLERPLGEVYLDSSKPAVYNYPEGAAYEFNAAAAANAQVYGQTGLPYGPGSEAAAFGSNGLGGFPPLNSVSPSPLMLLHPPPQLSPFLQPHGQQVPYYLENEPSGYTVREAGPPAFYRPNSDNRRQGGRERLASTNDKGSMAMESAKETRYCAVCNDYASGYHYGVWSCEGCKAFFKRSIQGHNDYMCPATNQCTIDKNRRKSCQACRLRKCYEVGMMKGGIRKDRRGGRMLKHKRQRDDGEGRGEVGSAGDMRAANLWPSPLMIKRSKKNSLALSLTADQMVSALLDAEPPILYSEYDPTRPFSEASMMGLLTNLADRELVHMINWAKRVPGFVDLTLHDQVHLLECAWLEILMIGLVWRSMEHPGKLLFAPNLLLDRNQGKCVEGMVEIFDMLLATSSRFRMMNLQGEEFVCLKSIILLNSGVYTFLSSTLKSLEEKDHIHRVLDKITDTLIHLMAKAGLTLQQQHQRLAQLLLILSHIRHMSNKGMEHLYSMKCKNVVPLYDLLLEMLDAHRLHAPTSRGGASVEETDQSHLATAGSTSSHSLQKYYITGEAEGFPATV
reported_endpoint: % Degradation at 3 μM
Write the numeric value and append its unit.

# batch: return % Degradation at 3 μM for each of the 4 molecules below
1. Cc1c(O)ccc2c1OCCC(c1cccc3[nH]ccc13)=C2c1ccc(O[C@H]2CCN(CCCF)C2)cc1
2. Cc1ccc(C2=C(c3ccc(O[C@H]4CCN(CCCF)C4)cc3)c3ccc(O)c(C)c3OCC2)c(F)c1
3. Oc1ccc2c(c1)C(c1ccc(O[C@H]3CCN(CCCF)C3)cc1)=C(c1ccc(OC(F)(F)F)cc1F)CC2
4. Oc1ccc2c(c1)SCC(c1ccc(OC(F)(F)F)cc1)=C2c1ccc(O[C@H]2CCN(CCCF)C2)nc1

Out:
["73%", "86%", "78%", "89%"]

###

target: ERα in MCF7 cells (Homo sapiens (Human)); assay: Test C: estrogen receptor degradation activity, ERα in cell western assay in MCF7 cells; assay type: cell-based; conditions: 4 hours post compound addition, ERα in cell western, read-out: Degradation IC50
reported_endpoint: DC50 (pM)
Give bare numbers, in pM.

compound	measured_number
O=C1Cc2cc(C3=C(c4ccc(O[C@H]5CCN(CCCF)C5)cc4)c4ccc(O)cc4SC3)ccc2N1 [Example 51]	12000
Oc1ccc2c(c1)SCCC(c1ccc(F)c(OC(F)F)c1)=C2c1ccc(O[C@H]2CCN(CCCF)C2)cc1 [Example 188]	800
Oc1ccc2c(c1)SCC(c1ccc3ncccc3c1)=C2c1ccc(O[C@H]2CCN(CCCF)C2)cc1 [Example 67]	1000
O=S1(=O)CCC(c2ccc(Cl)cc2Cl)=C(c2ccc(O[C@H]3CCN(CCCF)C3)cc2)c2ccc(O)cc21 [Example 231]	2000
Oc1ccc2c(c1)SCC(c1ccc(SC(F)(F)F)cc1)=C2c1ccc(O[C@H]2CCN(CCCF)C2)cc1 [Example 66]	200

# batch: return DC50 for each of the 6 compounds below
1. Cc1ccc(C2=C(c3ccc(O[C@H]4CCN(CCCF)C4)cc3)c3ccc(O)cc3SCC2)c(F)c1 [Example 164]
2. Cc1ccc(C2=C(c3ccc(O[C@H]4CCN(CCCF)C4)nc3)c3ccc(O)cc3SC2)c(F)c1 [Example 78]
3. CONC(=O)c1cc(C2=C(c3ccc(O[C@H]4CCN(CCCF)C4)cc3)c3ccc(O)cc3SCC2)ccc1F [Example 199]
4. CCOc1ccc(C2=C(c3ccc(O[C@H]4CCN(CCCF)C4)cc3)c3ccc(O)cc3SCC2)c(F)c1Cl [Example 221]
5. Oc1ccc2c(c1F)OCCC(c1cccc3[nH]ccc13)=C2c1ccc(O[C@H]2CCN(CCCF)C2)cc1 [Example 133]
6. Oc1ccc2c(c1)SCCC(c1ccc3c(c1)OC(F)(F)O3)=C2c1ccc(O[C@H]2CCN(CCCF)C2)cc1 [Example 193]

Out:
1: 500; 2: 200; 3: 400; 4: 200; 5: 2000; 6: 200

# batch: return DC50 for each of the 4 compounds below
1. Oc1ccc2c(c1)SCCC(c1ccc(Cl)cc1Cl)=C2c1ccc(O[C@H]2CCN(CCCF)C2)nc1 [Example 205]
2. Oc1ccc2c(c1)C(c1ccc(O[C@H]3CCN(CCCF)C3)cc1)=C(c1ccc(F)cc1Cl)CC2 [Example 4]
3. Oc1ccc2c(c1F)OCCC(c1ccc3cc[nH]c3c1)=C2c1ccc(O[C@H]2CCN(CCCF)C2)cc1 [Example 131]
4. Oc1ccc2c(c1)C(c1ccc(O[C@H]3CCN(CCCF)C3)cc1)=C(c1ccc(OC(F)(F)F)cc1)CC2 [Example 8]

Out:
[400, 12000, 3000, 25000]

###

biological target: His6-ERα298-554 D538G mutant (ERα ligand-binding domain) (Homo sapiens (Human), UniProt P03372, D538G); test: Test A: biochemical antagonist activity, LanthaScreen TR-FRET ERα coactivator assay, D538G mutant; details: asterisk (*): protocol using 10 nM estradiol; read-out: Antagonism D538G IC50
Sequence (P03372 298-554 D538G): as the sequence (P03372 298-554) above, with D241G counted along it
Labels assigned by IC50 range: bin A = under 0.1 µM, bin B = from 0.1 µM up to 0.7 µM, bin C = 0.7 µM and over

// known answers, use as guide
CC1(C)Cc2cc(C3=C(c4ccc(O[C@H]5CCN(CCCF)C5)cc4)c4ccc(O)cc4SCC3)ccc2O1 bin A
CC(C)(C)c1ccc(C2=C(c3ccc(O[C@H]4CCN(CCCF)C4)cc3)c3ccc(O)cc3SCC2)cc1 bin B
Oc1ccc2c(c1)SCCC(c1ccc3c(c1)OC(F)(F)O3)=C2c1ccc(O[C@H]2CCN(CCCF)C2)cc1 bin A
Oc1ccc2c(c1)SCC(c1ccc(OC(F)(F)F)cc1)=C2c1ccc(O[C@H]2CCN(CCCF)C2)nc1 bin B
Oc1ccc2c(c1)SCCC(c1ccc(SC(F)(F)F)cc1)=C2c1ccc(O[C@H]2CCN(CCCF)C2)cc1 bin B

In: Lab note: which band did COc1ccc(C2=C(c3ccc(O[C@H]4CCN(CCCF)C4)cc3)c3ccc(O)cc3SC2)cc1F land in?
Out: bin C

In: Lab note: which band did CCOc1cc(F)c(C2=C(c3ccc(O[C@H]4CCN(CCCF)C4)cc3)c3ccc(O)cc3SCC2)cc1F land in?
Out: bin B

In: Lab note: which band did Oc1ccc2c(c1)C(c1ccc(O[C@H]3CCN(CCCF)C3)cc1)=C(c1ccc(SC(F)(F)F)cc1)CC2 land in?
Out: bin C

In: Lab note: which band did CC1(C)Cc2cc(C3=C(c4ccc(O[C@H]5CCN(CCCF)C5)cc4)c4ccc(O)cc4SC3)ccc2O1 land in?
Out: bin B

In: Lab note: which band did O=C1Cc2cc(C3=C(c4ccc(O[C@H]5CCN(CCCF)C5)cc4)c4ccc(O)cc4SC3)ccc2N1 land in?
Out: bin C

In: Lab note: which band did Oc1ccc2c(c1)SCC(c1ccc(F)nc1F)=C2c1ccc(O[C@H]2CCN(CCCF)C2)cc1 land in?
Out: bin C

In: Lab note: which band did O=C(O)c1ccc2c(c1)CCCC(c1ccc(Cl)cc1Cl)=C2c1ccc(O[C@H]2CCN(CCCF)C2)nc1 land in?
Out: bin B

In: Lab note: which band did Oc1ccc2c(c1)SCCC(c1ccc(OC(F)F)cc1F)=C2c1ccc(O[C@H]2CCN(CCCF)C2)cc1 land in?
Out: bin A

In: Lab note: which band did Oc1ccc2c(c1)C(c1ccc(O[C@H]3CCN(CCCF)C3)cc1)=C(c1ccc(OC(F)(F)F)cc1F)CC2 land in?
Out: bin C

###

test system: MCF7 cells (breast tumor cells) WT; experiment: Test B: cell proliferation/viability assay (CellTiter-Glo) on MCF7 WT; format: cell-based; conditions: Homo sapiens, MCF7, 168 h, 7 days of compound exposure
Friendly reminder: IC50 below 0.6 nM is 1.0, at or above is 0.0.

// known answers, use as guide
molecule	group_label
Oc1ccc2c(c1)OCC(c1ccc(F)cc1Cl)=C2c1ccc(O[C@H]2CCN(CCCF)C2)cc1	0.0
Cc1ccc(C2=C(c3ccc(O[C@H]4CCN(CCCF)C4)cc3)c3ccc(O)cc3SC2)c(Cl)c1	0.0
CCOc1ccc(C2=C(c3ccc(O[C@H]4CCN(CCCF)C4)cc3)c3ccc(O)cc3SCC2)c(F)c1	1.0

In: Please check: IC50 for CC1(C)Cc2cc(C3=C(c4ccc(O[C@H]5CCN(CCCF)C5)cc4)c4ccc(O)cc4SCC3)ccc2N1 , strictly under 0.6 nM or not?
Out: 1.0

In: Please check: IC50 for CCOc1nccc(C2=C(c3ccc(O[C@H]4CCN(CCCF)C4)cc3)c3ccc(O)cc3SC2)c1F , strictly under 0.6 nM or not?
Out: 1.0

In: Please check: IC50 for [2H]C([2H])([2H])Oc1ccc(C2=C(c3ccc(O[C@H]4CCN(CCCF)C4)cc3)c3ccc(O)cc3SCC2)c(F)c1 , strictly under 0.6 nM or not?
Out: 1.0

In: Please check: IC50 for CC1(C)Cc2cc(C3=C(c4ccc(O[C@H]5CCN(CCCF)C5)cc4)c4ccc(O)cc4SC3)ccc2O1 , strictly under 0.6 nM or not?
Out: 1.0

In: Please check: IC50 for CCOc1ccc(C2=C(c3ccc(O[C@H]4CCN(CCCF)C4)cc3)c3ccc(O)cc3SC2)c(F)c1F , strictly under 0.6 nM or not?
Out: 0.0

In: Please check: IC50 for Oc1ccc2c(c1)SCCC(c1ccc3cc[nH]c3c1)=C2c1ccc(O[C@H]2CCN(CCCF)C2)cc1 , strictly under 0.6 nM or not?
Out: 1.0

In: Please check: IC50 for O=C1COc2ccc(C3=C(c4ccc(O[C@H]5CCN(CCCF)C5)cc4)c4ccc(O)cc4SC3)cc2N1 , strictly under 0.6 nM or not?
Out: 0.0
